tested on: IGROV1 complex spheroids (HUVEC, MSC), viability % test/control; assay: Anticancer human tumor IGROV1 cell line growth inhibition [GQUAD]; conditions: second compound 1 µM; first compound 0.000999 µM; active compounds read low;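 also: spheroids exposed to compounds for 7 days before readout; 100% = DMSO vehicle control viability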
Reported viability, T/C values are given for each entry in this list.
Entry rule: numbers only, all in %.

compound	viability, T/C, %
Cn1ncnc1[C@H]1c2n[nH]c(=O)c3cc(F)cc(c23)N[C@@H]1c1ccc(F)cc1 + CN(C)c1ccc(Nc2c3ccc(NC(=O)CCN4CCCC4)cc3nc3cc(NC(=O)CCN4CCCC4)ccc23)cc1	90.6
CC[C@@]1(O)C(=O)OCc2c1cc1n(c2=O)Cc2cc3c(CN(C)C)c(O)ccc3nc2-1 + Cc1[nH]c2ccc(F)cc2c1-c1nc2c3cccnc3c3ncccc3c2[nH]1	4.53
CCc1c2c(nc3ccc(O)cc13)-c1cc3c(c(=O)n1C2)COC(=O)[C@]3(O)CC + CN(C)c1ccc(Nc2c3ccc(NC(=O)CCN4CCCC4)cc3nc3cc(NC(=O)CCN4CCCC4)ccc23)cc1	49.5
CC[C@@]1(O)C(=O)OCc2c1cc1n(c2=O)Cc2cc3c(CN(C)C)c(O)ccc3nc2-1 + CN(C)c1ccc(Nc2c3ccc(NC(=O)CCN4CCCC4)cc3nc3cc(NC(=O)CCN4CCCC4)ccc23)cc1	87.5

In the following, a different compound is considered.
# query: viability, T/C of entry Cn1ncnc1[C@H]1c2n[nH]c(=O)c3cc(F)cc(c23)N[C@@H]1c1ccc(F)cc1 + Cc1cnc(CNC(=O)c2c(=O)c3ccc(N4CCCN(C)CC4)nc3n3c2sc2ccccc23)cn1 17.3
